- Tested on: MV4-11
- Test Details: Antiproliferative activity against human MV4-11 cells
pIC50: −log10 of the molar value.
Use Yes when the recorded pIC50 is no lower than 6; use No when it is lower.

[[record]]
molecule = "Cc1cccc(C(=O)Nc2sc3c(c2C(N)=O)CCCC3)c1"
assayed_system = "MV4-11"
cat = "No"


Q: Can "NC(=O)c1c(NC(=O)/C=C/c2ccccc2)sc2c1CCCC2" be said to have pIC50 at or above 6?
Result: Yes

Q: Can "COc1cc(OC)cc(C(=O)Nc2sc3c(c2C(N)=O)CCCC3)c1" be said to have pIC50 at or above 6?
Result: No

Q: Can "COc1ccc(C(=O)Nc2sccc2C(N)=O)cc1OC" be said to have pIC50 at or above 6?
Result: No

Q: Can "Cc1ccc(C(=O)Nc2sc3c(c2C(N)=O)CCCC3)cc1" be said to have pIC50 at or above 6?
Result: Yes

Q: Can "COc1ccc(/C=C/C(=O)Nc2sc3c(c2C(N)=O)CCCC3)cc1OC" be said to have pIC50 at or above 6?
Result: No

Q: Can "CC(C)c1ccc(/C=C/C(=O)Nc2sc3c(c2C(N)=O)CCCC3)cc1" be said to have pIC50 at or above 6?
Result: No

Q: Can "NC(=O)c1c(NC(=O)Cc2ccccc2)sc2c1CCCC2" be said to have pIC50 at or above 6?
Result: No

Q: Can "COc1ccc(C(=O)Nc2sc3c(c2C(N)=O)CCCC3)cc1OC" be said to have pIC50 at or above 6?
Result: Yes

Q: Can "NC(=O)c1c(NC(=O)c2ccncc2)sc2c1CCCC2" be said to have pIC50 at or above 6?
Result: No

Q: Can "NC(=O)c1c(NC(=O)c2ccccn2)sc2c1CCCC2" be said to have pIC50 at or above 6?
Result: Yes

Q: Can "COc1ccc(/C=C/C(=O)Nc2sc3c(c2C(N)=O)CCCC3)cc1" be said to have pIC50 at or above 6?
Result: No

Q: Can "COc1ccc(C(=O)Nc2sc3c(c2C(N)=O)CCC3)cc1OC" be said to have pIC50 at or above 6?
Result: Yes

Q: Can "NC(=O)c1c(NC(=O)c2cccnc2)sc2c1CCCC2" be said to have pIC50 at or above 6?
Result: No

Q: Can "CC(C)(C)c1ccc(C(=O)Nc2sc3c(c2C(N)=O)CCCC3)cc1" be said to have pIC50 at or above 6?
Result: No

Q: Can "NC(=O)c1c(NC(=O)c2ccccc2)sc2c1CCCC2" be said to have pIC50 at or above 6?
Result: No

Q: Can "CC(=O)c1ccc(C(=O)Nc2sc3c(c2C(N)=O)CCCC3)cc1" be said to have pIC50 at or above 6?
Result: No
